Test system: A549 NSCLC
Experiment: NCI tumour cell line growth inhibition, 48 h
Below, each entry is listed with its recorded TGI.

Worked examples, 3 molecules total:
| Molecule | Experimental value |
| --- | --- |
| Nc1c(C(=O)c2ccc(Cl)cc2)[nH]c(NCc2ccccc2)c1C(=S)Nc1ccccc1 | 4.87 µM |
| O=c1oc2cc(O)ccc2c(O)c1C(c1ccc(C(c2c(O)c3ccc(O)cc3oc2=O)c2c(O)c3ccc(O)cc3oc2=O)cc1)c1c(O)c2ccc(O)cc2oc1=O | > 100 µM |
| CCOC(=O)C(CC#Cc1ccc(C#CCC(NC(C)=O)C(=O)OCC)cc1)NC(C)=O (centres undefined) | > 100 µM |

Continue with the molecule presented below.
## Task Consider the molecule shown here: O=C1CCCCN1CCCCC#Cc1ccccc1C#Cc1ccc([N+](=O)[O-])cc1 What is its recorded TGI?
## Result 13 µM

----------
Below, each entry is listed with its recorded TGI.
System: NCI-H460 lung
Test: NCI tumour cell line growth inhibition, 48 h

Worked examples, 8 compounds total:
| Compound | System tested | Measurement name | Experimental value |
| --- | --- | --- | --- |
| COc1ccc(-c2c(C#N)c(N)nc3c2CCS(=O)(=O)c2ccccc2-3)cc1 | NCI-H460 lung | TGI | > 100 µM |
| c1ccc(/C(=N/Nc2ccccn2)c2ncccn2)cc1 | NCI-H460 lung | TGI | > 57.8 µM |
| Cc1cc2c(cc1C)[n+](=O)c(C(=O)C/C(=N/NC(=O)CC#N)C(=O)Nc1ccccc1C(F)(F)F)c(C)n2[O-] | NCI-H460 lung | TGI | > 100 µM |
| C/C(CC(=O)Nc1ccc(C)cc1C)=N/N=C(N)N | NCI-H460 lung | TGI | > 100 µM |
| Cc1nn(-c2cc(Cl)ccc2[N+](=O)[O-])c(C)c1Cl | NCI-H460 lung | TGI | > 100 µM |
| O=C(/N=N/C(=O)OCc1ccccc1)OCc1ccccc1 | NCI-H460 lung | TGI | > 100 µM |
| N#CSc1c[nH]c2cccc(/C=C/C(=O)/C=C(/C=C/c3cccc4[nH]cc(SC#N)c34)OB(F)F)c12 | NCI-H460 lung | TGI | 6.13 µM |
| CC(=S)N=Cc1c(O)cc(C)oc1=O | NCI-H460 lung | TGI | > 100 µM |

Continue with the compound presented below.
## Task Notebook: pull reported TGI for NCI-H460 lung, entry O=c1oc2cc(O)ccc2c(O)c1C(c1ccc(C(c2c(O)c3ccc(O)cc3oc2=O)c2c(O)c3ccc(O)cc3oc2=O)cc1)c1c(O)c2ccc(O)cc2oc1=O
## Result > 100 µM

----------
Below, each entry is listed with its recorded TGI.
Tested on: UACC-62 melanoma
Assay: NCI tumour cell line growth inhibition, 48 h

| Compound | TGI |
| --- | --- |
| O=C1CCCCN1CCCCC#Cc1ccccc1C#Cc1ccc([N+](=O)[O-])cc1 | 20.3 µM |
| Cn1c([O-])nc(-n2cc[n+](C)c2)cc1=O | > 100 µM |
| COc1ccc(/C=C/c2nccc3ccccc23)cc1OC | > 10 µM |

## Task Consider the compound shown here: CCOn1c(C2(CC3CCN(C(=O)c4ccccc4)CC3)OCCO2)cc2ccccc21 What is its recorded TGI?
## Result 23.4 µM

## Task Repeat for the following compound: CC(C)(C)[Si](C)(C)OCC1OC(n2cnc3c(N)ncnc32)C(O[Si](C)(C)C(C)(C)C)C1O[Si](C)(C)C(C)(C)C (stereo unspecified)
## Result 51.6 µM

## Task Repeat for the following compound: CC1(C(=O)O)CCCC1C(=O)O (stereo unspecified)
## Result > 100 µM

## Task Repeat for the following compound: Cc1cc2ncc3c(=O)n(NS(=O)(=O)c4ccc(N)cc4)ccc3n2n1
## Result > 100 µM

## Task Repeat for the following compound: O=C(/C=C/c1c(O)ccc2ccccc12)c1cccc(O)c1
## Result 69.1 µM

## Task Repeat for the following compound: OCC(O)CC[CH2][Sn]([Br])([c]1ccccc1)[c]1ccccc1 (stereo unspecified)
## Result > 100 µM

## Task Repeat for the following compound: COC(=O)C1CC2(c3ccccc3)C(=O)c3ccccc3N2O1 (stereo unspecified)
## Result > 100 µM

## Task Repeat for the following compound: COC12C=C(C)C(CC1)CC2C(=O)O (stereo unspecified)
## Result > 100 µM
